Target: CSF1R (Homo sapiens, UniProt P07333)
Sequence (P07333 20-972): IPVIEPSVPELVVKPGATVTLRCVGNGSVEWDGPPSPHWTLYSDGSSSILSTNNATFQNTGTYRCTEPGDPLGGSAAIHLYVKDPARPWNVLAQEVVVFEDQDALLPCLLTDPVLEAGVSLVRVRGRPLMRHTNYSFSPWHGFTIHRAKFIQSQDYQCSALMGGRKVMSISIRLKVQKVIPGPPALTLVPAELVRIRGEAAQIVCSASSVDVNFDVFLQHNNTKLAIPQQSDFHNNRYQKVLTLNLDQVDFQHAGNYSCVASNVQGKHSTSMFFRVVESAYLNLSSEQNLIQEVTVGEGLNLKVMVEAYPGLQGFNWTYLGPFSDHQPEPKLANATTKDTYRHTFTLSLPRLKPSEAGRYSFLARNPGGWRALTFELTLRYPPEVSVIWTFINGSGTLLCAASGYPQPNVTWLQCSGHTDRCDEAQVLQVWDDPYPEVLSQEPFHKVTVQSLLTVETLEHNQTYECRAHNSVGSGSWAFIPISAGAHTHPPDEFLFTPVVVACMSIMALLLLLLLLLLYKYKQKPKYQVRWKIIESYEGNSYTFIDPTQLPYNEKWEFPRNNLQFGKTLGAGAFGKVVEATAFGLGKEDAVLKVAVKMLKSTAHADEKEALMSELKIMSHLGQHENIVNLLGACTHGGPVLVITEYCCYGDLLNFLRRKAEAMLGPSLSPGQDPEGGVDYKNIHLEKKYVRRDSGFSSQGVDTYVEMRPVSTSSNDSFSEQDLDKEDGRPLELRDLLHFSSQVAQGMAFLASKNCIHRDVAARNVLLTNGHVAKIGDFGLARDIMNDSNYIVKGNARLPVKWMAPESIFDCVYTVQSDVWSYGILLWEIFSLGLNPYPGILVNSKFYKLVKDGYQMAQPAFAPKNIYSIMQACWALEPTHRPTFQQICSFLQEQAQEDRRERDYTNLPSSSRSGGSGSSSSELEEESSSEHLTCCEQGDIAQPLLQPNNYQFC
Assay: Z'-Lyte biochemical kinase assay (SelectScreen), CSF1R
Settings: at 50 nM, in duplicate
I'd be grateful if you could share measured inhibition at 0.05 µM for these entries.
Just the number please, in %, no unit attached.

// query Can you share its inhibition at 0.05 µM? I mean this compound: O=C(NCc1cccc(F)c1)c1cccc(Oc2ccnc3ccccc23)c1
// result 71

// query What measured inhibition at 0.05 µM goes with COc1ccccc1CNC(=O)c1cc(F)cc(Oc2ccnc3cc(OC)c(OC)cc23)c1 ?
// result 86

// query Entry COc1ccccc1CNC(=O)c1ccc(F)c(Oc2ccnc3cc(OC)c(OC)cc23)c1 : reported inhibition at 0.05 µM = ?
// result 94

// query Item under review: COc1cc2nccc(Oc3cccc(C(=O)N[C@H](C)c4ccccc4)c3)c2cc1OC . Reported inhibition at 0.05 µM?
// result 97

// query Query (compound): COc1ccc2c(Oc3cc(F)cc(C(=O)NCc4ccccc4OC)c3)ccnc2c1 ; field requested: inhibition at 0.05 µM
// result 85

// query Using the record for Cc1c(Oc2ccnc3ccccc23)cccc1C(=O)NCc1cccc(F)c1 , report its inhibition at 0.05 µM.
// result 73

// query Param item = CNc1ccc2c(Oc3cccc(C(=O)NCc4ccncc4)c3C)ccnc2c1 ; retrieve measured inhibition at 0.05 µM.
// result 75

// query Item COc1ccc2c(Oc3cccc(C(=O)NCc4ccccc4)c3)ccnc2c1 has what recorded inhibition at 0.05 µM?
// result 85

// query What value of measured inhibition at 0.05 µM is listed for COc1cc2nccc(Oc3cccc(C(=O)NCc4ccccc4)c3)c2cc1OC ?
// result 91

// query Look up inhibition at 0.05 µM for this compound: COc1ccc2c(Oc3cccc(C(=O)NCc4cccc(F)c4)c3C)ccnc2c1
// result 78

// query Please give the measured inhibition at 0.05 µM for this compound: Cc1c(Oc2ccnc3ccccc23)cccc1C(=O)NCc1ccc(C#N)cc1
// result 72

// query I would be grateful if you could share the reported inhibition at 0.05 µM for Cc1c(Oc2ccnc3cc(Cl)ccc23)cccc1C(=O)NCc1ccncc1 .
// result 88

// query Recorded inhibition at 0.05 µM for O=C(NCc1ccncc1)c1cccc(Oc2ccnc3ccccc23)c1 , please?
// result 79

// query Need inhibition at 0.05 µM of COc1cc2nccc(Oc3cccc(C(=O)NCc4cncc(F)c4)c3)c2cc1OC , thanks.
// result 93

// query Using the record for CN(C)c1ccc2c(Oc3cc(C(=O)NCc4ccncc4)ccc3F)ccnc2c1 , report its inhibition at 0.05 µM.
// result 77

// query For CNc1ccc2c(Oc3cccc(C(=O)NCc4cccc(F)c4)c3C)ccnc2c1 , what is its reported inhibition at 0.05 µM?
// result 79

// query Any idea what inhibition at 0.05 µM was measured for COc1cc2nccc(Oc3cc(F)cc(C(=O)N[C@H](C)C4CCCCC4)c3)c2cc1OC ?
// result 77

// query I have this compound here, CN(C)c1ccc2c(Oc3cccc(C(=O)NCc4ccncc4)c3)ccnc2c1 , and I need its recorded inhibition at 0.05 µM.
// result 83

// query Name the recorded inhibition at 0.05 µM for Cc1c(Oc2ccnc3cc(N4CCC4)ccc23)cccc1C(=O)NCc1ccncc1 .
// result 81

// query Please give the measured inhibition at 0.05 µM for this compound: COc1ccc2c(Oc3cc(C(=O)NCc4ccncc4)ccc3F)ccnc2c1
// result 79

// query What inhibition at 0.05 µM value was documented for this compound, COc1cc2nccc(Oc3cc(C(=O)NCc4cccc(F)c4)ccc3F)c2cc1OC ?
// result 93

// query Need inhibition at 0.05 µM, item COc1cc2nccc(Oc3cccc(C(=O)NCCc4ccccc4)c3)c2cc1OC
// result 95

// query Which inhibition at 0.05 µM value belongs to O=C(NCC1CCCCC1)c1cccc(Oc2ccnc3ccccc23)c1 ?
// result 71

// query Would you mind telling me what inhibition at 0.05 µM value was observed for COc1ccc2c(Oc3cccc(C(=O)NCc4ccncc4)c3C)ccnc2c1 ?
// result 96

// query // inhibition at 0.05 µM lookup, key: O=C(NCc1cccnc1)c1cccc(Oc2ccnc3ccccc23)c1
// result 83

// query What value of inhibition at 0.05 µM has been reported for the following compound? O=C(NCc1cccc(F)c1)c1ccc(F)c(Oc2ccnc3ccccc23)c1
// result 81

// query Entry COc1ccccc1CNC(=O)c1ccc(F)c(Oc2ccnc3ccccc23)c1 : reported inhibition at 0.05 µM = ?
// result 75
